- Procedure Text: gradient 5% acetonitrile 3 min, to 50% in 2 min, to 85% in 15 min, held 3 min, 100 µL/min
- Assay Conditions: column: Zorbax Extend-C18 2.1 x 50 mm; eluents: water / acetonitrile, 0.1% formic acid
# note: boundary value 800 s maps to Not fulfilled; RP-LC retention time below it maps to Fulfilled

Dear colleague, could you confirm whether RP-LC retention time of O=C(CC1CCCCN1S(=O)(=O)c1ccccc1)Nc1cc(F)ccc1F (stereo not given) falls below 800 s? Thanks.
Not fulfilled

Dear colleague, could you confirm whether RP-LC retention time of Cc1ccc(C)c(N2CCN(C(=O)c3cc(-c4ccncc4)cn3C)CC2)c1 falls below 800 s? Thanks.
Fulfilled

Dear colleague, could you confirm whether RP-LC retention time of CCC(C)(C)NS(=O)(=O)c1cc(-c2nc(C)c(C(=O)N3CCCC3)s2)n(C)c1 falls below 800 s? Thanks.
Not fulfilled

Dear colleague, could you confirm whether RP-LC retention time of Cc1ccc(NS(=O)(=O)c2ccc3c(c2)CCCC(=O)N3)cc1F falls below 800 s? Thanks.
Fulfilled

This collection of values is drawn from the METLIN SMRT retention time set (Domingo-Almenara et al. 2019).
